Where do the numbers come from? From patent US20260035456A1.

Target: T1, biotin-labeled human ADM (human, not fully specified; biotin label (named human ADM-C-biotin in Example 1.4; position of the biotin not stated for the other lots))
T1 construct: Synthetic peptide; also called human ADM-C-biotin; hADM-Biotin
T1 peptide: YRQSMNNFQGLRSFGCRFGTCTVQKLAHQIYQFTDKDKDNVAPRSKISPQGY
Assay: BLI (Octet RED96e), as in Example 3
Output yes (1) for kon not less than 500000 M⁻¹ s⁻¹; output no (0) otherwise.

# example entries with known answers
Ab2004.Am37 (IgG1 antibody) (antibody, V domains shown, Expressed in CHO cells, human IgG1/kappa) VH: QVQLVQSGAEVKKPGASVKVSCKASGYTFTSYGISWVRQAPGQGLEWMGWISPYTGKTNYAQKLQGRVTMTRDTSTSTAYMELRSLRSDDTAVYYCAREGRWGGSFNIWGQGTMVTVSS VL: DIQMTQSPSSLSASVGDRVTITCRASQGISSYLAWYQQKPGKAPKLLIYDVSILDAGVPSRFSGSGSGTDFTFTISSLQPEDIATYYCQQYDNLPLTFGGGTKVEIKR: yes (1)
Ab2004.Am33 (IgG1 antibody) (antibody, V domains shown, Expressed in CHO cells, human IgG1/kappa) VH: QVQLVQSGAEVKKPGASVKVSCKASGYTFTSYGISWVRQAPGQGLEWMGWISPYSGNTNYAQKLQGRVTMTRDTSTSTAYMELRSLRSDDTAVYYCAREGRWGGSFNIWGQGTMVTVSS VL: DIQMTQSPSSLSASVGDRVTITCRASEGISEYLAWYQQKPGKAPKLLIYDASNLETGVPSRFSGSGSGTDFTFTISSLQPEDIATYYCQQYDNLPLTFGGGTKVEIKR: yes (1)
Ab2004.Am35 (IgG1 antibody) (antibody, V domains shown, Expressed in CHO cells, human IgG1/kappa) VH: QVQLVQSGAEVKKPGASVKVSCKASGYTFTQYGIAWVRQAPGQGLEWMGWISAYQGNTNYAQKLQGRVTMTRDTSTSTAYMELRSLRSDDTAVYYCAREGRWGGSFNIWGQGTMVTVSS VL: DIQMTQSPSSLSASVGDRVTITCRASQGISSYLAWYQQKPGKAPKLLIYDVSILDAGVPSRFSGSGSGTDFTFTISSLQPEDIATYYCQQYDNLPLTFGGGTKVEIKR: no (0)
Enibarcimab (antibody, V domains shown) VH: QVQLVQSGAEVKKPGSSVKVSCKASGYTFSRYWIEWVRQAPGQGLEWIGEILPGSGSTNYNQKFQGRVTITADTSTSTAYMELSSLRSEDTAVYYCTEGYEYDGFDYWGQGTTVTVSS VL: DVVLTQSPLSLPVTLGQPASISCRSSQSIVYSNGNTYLEWYLQRPGQSPRLLIYRVSNRFSGVPDRFSGSGSGTDFTLKISRVEAEDVGVYYCFQGSHIPYTFGGGTKLEIKR: yes (1)
Ab2004.Am38 (IgG1 antibody) (antibody, V domains shown, Expressed in CHO cells, human IgG1/kappa) VH: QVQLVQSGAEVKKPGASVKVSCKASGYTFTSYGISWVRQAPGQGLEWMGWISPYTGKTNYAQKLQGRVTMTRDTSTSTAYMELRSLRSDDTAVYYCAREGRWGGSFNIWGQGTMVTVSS VL: DIQMTQSPSSLSASVGDRVTITCRASQGISSYLAWYQQKPGKAPKLLIYDTSDLDTGVPSRFSGSGSGTDFTFTISSLQPEDIATYYCQQYDNLPLTFGGGTKVEIKR: yes (1)

Q: Does kon meet or surpass 500000 M⁻¹ s⁻¹ for fully human antibody Ab2004.Am01 (expressed antibody) (antibody, V domains shown, also called parent antibody Ab2004.Am01) VH: QVQLVQSGAEVKKPGASVKVSCKASGYTFTSYGISWVRQAPGQGLEWMGWISAYQGNTNYAQKLQGRVTMTRDTSTSTAYMELRSLRSDDTAVYYCAREGRWGGSFNIWGQGTMVTVSS VL: DIQMTQSPSSLSASVGDRVTITCRASQGISSYLAWYQQKPGKAPKLLIYDASNLETGVPSRFSGSGSGTDFTFTISSLQPEDIATYYCQQYDNLPLTFGGGTKVEIK ?
Result: no (0)
